Biological target: IKZF2 (Homo sapiens, UniProt Q96SW2+Q9UKS7)
Sequence (Q9UKS7 whole entry): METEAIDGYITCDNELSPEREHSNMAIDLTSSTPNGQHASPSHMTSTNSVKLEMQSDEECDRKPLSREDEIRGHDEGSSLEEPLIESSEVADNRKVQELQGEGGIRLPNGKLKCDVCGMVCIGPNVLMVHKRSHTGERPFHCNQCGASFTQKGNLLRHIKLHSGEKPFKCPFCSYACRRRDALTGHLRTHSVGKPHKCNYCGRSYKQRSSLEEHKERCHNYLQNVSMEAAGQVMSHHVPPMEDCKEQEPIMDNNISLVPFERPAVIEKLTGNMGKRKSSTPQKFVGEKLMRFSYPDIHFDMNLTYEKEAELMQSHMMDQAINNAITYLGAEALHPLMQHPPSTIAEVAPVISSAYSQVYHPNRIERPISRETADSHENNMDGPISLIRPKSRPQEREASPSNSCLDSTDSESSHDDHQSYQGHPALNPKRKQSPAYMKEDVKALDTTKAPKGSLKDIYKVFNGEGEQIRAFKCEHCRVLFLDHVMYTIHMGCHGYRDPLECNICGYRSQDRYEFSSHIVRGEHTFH
Sequence (Q96SW2 whole entry): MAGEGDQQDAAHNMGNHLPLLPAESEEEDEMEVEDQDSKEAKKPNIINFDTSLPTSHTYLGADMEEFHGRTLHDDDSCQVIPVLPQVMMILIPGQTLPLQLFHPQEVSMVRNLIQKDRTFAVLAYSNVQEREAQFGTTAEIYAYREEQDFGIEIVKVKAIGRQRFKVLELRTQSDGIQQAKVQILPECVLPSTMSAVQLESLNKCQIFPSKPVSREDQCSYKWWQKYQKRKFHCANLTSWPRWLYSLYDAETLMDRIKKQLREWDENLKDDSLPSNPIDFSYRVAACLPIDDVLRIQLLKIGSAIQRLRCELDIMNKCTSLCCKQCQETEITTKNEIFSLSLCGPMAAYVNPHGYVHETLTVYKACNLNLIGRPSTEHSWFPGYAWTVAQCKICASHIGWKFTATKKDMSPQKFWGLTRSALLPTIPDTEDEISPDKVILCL
Sequence (Q16531 whole entry partner): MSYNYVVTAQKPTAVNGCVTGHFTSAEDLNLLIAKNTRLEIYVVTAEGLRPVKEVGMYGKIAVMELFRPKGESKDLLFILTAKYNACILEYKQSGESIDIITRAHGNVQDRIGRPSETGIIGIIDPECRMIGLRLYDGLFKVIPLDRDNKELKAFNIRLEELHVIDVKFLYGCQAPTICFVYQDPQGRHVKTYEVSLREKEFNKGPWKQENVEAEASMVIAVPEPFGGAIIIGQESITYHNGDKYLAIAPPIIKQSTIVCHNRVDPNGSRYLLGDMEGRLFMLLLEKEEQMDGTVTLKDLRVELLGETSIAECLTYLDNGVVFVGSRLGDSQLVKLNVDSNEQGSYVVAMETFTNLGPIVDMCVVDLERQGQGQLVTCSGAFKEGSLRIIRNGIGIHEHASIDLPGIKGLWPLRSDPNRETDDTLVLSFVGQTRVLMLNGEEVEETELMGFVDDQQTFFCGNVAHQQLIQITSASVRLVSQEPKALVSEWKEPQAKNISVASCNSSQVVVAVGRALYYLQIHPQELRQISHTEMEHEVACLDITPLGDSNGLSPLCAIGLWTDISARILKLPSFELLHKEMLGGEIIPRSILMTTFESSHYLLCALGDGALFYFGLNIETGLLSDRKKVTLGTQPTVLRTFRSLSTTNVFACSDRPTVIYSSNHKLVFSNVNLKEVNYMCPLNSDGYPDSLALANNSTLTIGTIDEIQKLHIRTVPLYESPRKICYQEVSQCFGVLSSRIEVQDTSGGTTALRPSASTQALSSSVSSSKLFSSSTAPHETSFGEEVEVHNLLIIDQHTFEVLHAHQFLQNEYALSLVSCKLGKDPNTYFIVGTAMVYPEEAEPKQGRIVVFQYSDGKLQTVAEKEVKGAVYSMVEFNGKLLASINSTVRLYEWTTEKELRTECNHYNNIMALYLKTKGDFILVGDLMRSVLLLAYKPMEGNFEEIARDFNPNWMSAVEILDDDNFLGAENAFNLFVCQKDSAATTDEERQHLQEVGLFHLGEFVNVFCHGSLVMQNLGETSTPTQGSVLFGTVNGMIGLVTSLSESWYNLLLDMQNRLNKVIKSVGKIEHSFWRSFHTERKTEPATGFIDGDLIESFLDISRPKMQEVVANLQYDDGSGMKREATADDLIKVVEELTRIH
Assay: Prolabel quantification of IKZF2 protein levels in 293GT cells
Assay type: cell-based
Settings: 24 h, 10 μM, 24 h, 293GT cells; read-out: IKZF2 % protein reduction at 10 μM, 24 h
reported metric: inhibition at 10 µM (%)

Consider the reported inhibition at 10 µM for these compounds:
> print(dat)
                                   compound                     target.or.test.system  recorded.measurement
1  O=C1CCC(N2Cc3cc(C4CCN(Cc5cnc[nH]5)CC4)ccc3C2=O)C(=O)N1 (stereo not shown)  IKZF2 (Homo sapiens, UniProt Q96SW2+Q9UKS7)                    50
2  Cc1ccc(CN2CCC(c3ccc4c(c3)CN(C3CCC(=O)NC3=O)C4=O)CC2)cc1 (stereo not shown)  IKZF2 (Homo sapiens, UniProt Q96SW2+Q9UKS7)                    55
3  CC(C)Oc1cccc(CN2CCC(c3ccc4c(c3)CN(C3CCC(=O)NC3=O)C4=O)CC2)n1 (stereo not shown)  IKZF2 (Homo sapiens, UniProt Q96SW2+Q9UKS7)                    60
4  O=C1CCC(N2Cc3cc(C4CCN(Cc5cccc6ccccc56)CC4)ccc3C2=O)C(=O)N1 (stereo not shown)  IKZF2 (Homo sapiens, UniProt Q96SW2+Q9UKS7)                    60
5  O=C1CCC(N2Cc3cc(C4=CCCNC4)ccc3C2=O)C(=O)N1 (stereo not shown)  IKZF2 (Homo sapiens, UniProt Q96SW2+Q9UKS7)                     0

(a) O=C1CCC(N2Cc3cc(C4CCN(Cc5cc(F)c(O)c(F)c5)CC4)ccc3C2=O)C(=O)N1 (stereo not shown)
(b) O=C1CCC(N2Cc3cc(C4CCN(C(c5ccccc5)C(F)F)CC4)ccc3C2=O)C(=O)N1 (stereo not shown)
For the two items a and b , which reports the higher inhibition at 10 µM value? Refer to your chosen item by its label in the answer.
a
(a: 70%, b: 40%)

====

Target: IKZF2 (Homo sapiens, UniProt Q96SW2+Q9UKS7)
Assay: Prolabel quantification of IKZF2 protein levels in 293GT cells
Type: cell-based
Conditions: Prolabel assay, 293GT cells; read-out: IKZF2 EC50
reported metric: DC50 (nM)

> print(dat)
                                   compound  reported.metric  unit.string  recorded.measurement
1  CCC(C)(C)c1ccc(CN2CCC(c3ccc4c(c3)CN(C3CCC(=O)NC3=O)C4=O)CC2)cc1 (stereo not drawn) [Compound I-89]             DC50           nM                    33

(P) O=C1CCC(N2Cc3cc(C4CCN(Cc5ccc(OCc6ccccn6)cc5)CC4)ccc3C2=O)C(=O)N1 (stereo not drawn) [Compound I-255]
(Q) CC(c1ccccc1)N1CCC(c2ccc3c(c2)CN(C2CCC(=O)NC2=O)C3=O)CC1 (racemic) [Compound I-62]
Looking only at measured DC50, which entry is lower, P or Q ? Refer to your chosen item by its label in the answer.
Q

====

Target: IKZF2 (Homo sapiens, UniProt Q96SW2+Q9UKS7)
Assay: Prolabel quantification of IKZF2 protein levels in 293GT cells
Type: cell-based
Conditions: Prolabel assay, 293GT cells; read-out: IKZF2 EC50
reported metric: DC50 (nM)

> print(dat)
                                   compound  reported.metric  recorded.measurement
1  O=C1CCC(N2Cc3cc(C4CCN(Cc5cc(C(F)(F)F)cc(C(F)(F)F)c5)CC4)ccc3C2=O)C(=O)N1 (centres unmarked) [Compound I-215]             DC50                    19
2  O=C1CCC(N2Cc3cc(C4CCN(Cc5ncccn5)CC4)ccc3C2=O)C(=O)N1 (centres unmarked) [Compound I-95]             DC50                   130
3  COc1ccccc1CN1CCC(c2ccc3c(c2)CN(C2CCC(=O)NC2=O)C3=O)CC1 (centres unmarked) [Compound I-67]             DC50                    58
4  CN(C)S(=O)(=O)c1cccc(CN2CCC(c3ccc4c(c3)CN(C3CCC(=O)NC3=O)C4=O)CC2)c1 (centres unmarked) [Compound I-216]             DC50                    10
5  O=C1CCC(N2Cc3cc(C4CCN(Cc5ccc6ccc(F)cc6n5)CC4)ccc3C2=O)C(=O)N1 (centres unmarked) [Compound I-232]             DC50                    18

(A) O=C1CCC(N2Cc3cc(C4CCN(Cc5cccc(Cl)c5)CC4)ccc3C2=O)C(=O)N1 (centres unmarked) [Compound I-16]
(B) C[C@H](c1ccccc1)N1CCC(c2ccc3c(c2)CN(C2CCC(=O)NC2=O)C3=O)CC1 (single isomer, unassigned) [Compound I-247]
For the two items A and B , which reports the higher DC50 value? Refer to your chosen item by its label in the answer.
B
(B: 17 nM, A: 8 nM)
